ASSAYED SYSTEM: NaV 1.7 (Homo sapiens, UniProt Q15858)
Sequence (Q15858 whole entry): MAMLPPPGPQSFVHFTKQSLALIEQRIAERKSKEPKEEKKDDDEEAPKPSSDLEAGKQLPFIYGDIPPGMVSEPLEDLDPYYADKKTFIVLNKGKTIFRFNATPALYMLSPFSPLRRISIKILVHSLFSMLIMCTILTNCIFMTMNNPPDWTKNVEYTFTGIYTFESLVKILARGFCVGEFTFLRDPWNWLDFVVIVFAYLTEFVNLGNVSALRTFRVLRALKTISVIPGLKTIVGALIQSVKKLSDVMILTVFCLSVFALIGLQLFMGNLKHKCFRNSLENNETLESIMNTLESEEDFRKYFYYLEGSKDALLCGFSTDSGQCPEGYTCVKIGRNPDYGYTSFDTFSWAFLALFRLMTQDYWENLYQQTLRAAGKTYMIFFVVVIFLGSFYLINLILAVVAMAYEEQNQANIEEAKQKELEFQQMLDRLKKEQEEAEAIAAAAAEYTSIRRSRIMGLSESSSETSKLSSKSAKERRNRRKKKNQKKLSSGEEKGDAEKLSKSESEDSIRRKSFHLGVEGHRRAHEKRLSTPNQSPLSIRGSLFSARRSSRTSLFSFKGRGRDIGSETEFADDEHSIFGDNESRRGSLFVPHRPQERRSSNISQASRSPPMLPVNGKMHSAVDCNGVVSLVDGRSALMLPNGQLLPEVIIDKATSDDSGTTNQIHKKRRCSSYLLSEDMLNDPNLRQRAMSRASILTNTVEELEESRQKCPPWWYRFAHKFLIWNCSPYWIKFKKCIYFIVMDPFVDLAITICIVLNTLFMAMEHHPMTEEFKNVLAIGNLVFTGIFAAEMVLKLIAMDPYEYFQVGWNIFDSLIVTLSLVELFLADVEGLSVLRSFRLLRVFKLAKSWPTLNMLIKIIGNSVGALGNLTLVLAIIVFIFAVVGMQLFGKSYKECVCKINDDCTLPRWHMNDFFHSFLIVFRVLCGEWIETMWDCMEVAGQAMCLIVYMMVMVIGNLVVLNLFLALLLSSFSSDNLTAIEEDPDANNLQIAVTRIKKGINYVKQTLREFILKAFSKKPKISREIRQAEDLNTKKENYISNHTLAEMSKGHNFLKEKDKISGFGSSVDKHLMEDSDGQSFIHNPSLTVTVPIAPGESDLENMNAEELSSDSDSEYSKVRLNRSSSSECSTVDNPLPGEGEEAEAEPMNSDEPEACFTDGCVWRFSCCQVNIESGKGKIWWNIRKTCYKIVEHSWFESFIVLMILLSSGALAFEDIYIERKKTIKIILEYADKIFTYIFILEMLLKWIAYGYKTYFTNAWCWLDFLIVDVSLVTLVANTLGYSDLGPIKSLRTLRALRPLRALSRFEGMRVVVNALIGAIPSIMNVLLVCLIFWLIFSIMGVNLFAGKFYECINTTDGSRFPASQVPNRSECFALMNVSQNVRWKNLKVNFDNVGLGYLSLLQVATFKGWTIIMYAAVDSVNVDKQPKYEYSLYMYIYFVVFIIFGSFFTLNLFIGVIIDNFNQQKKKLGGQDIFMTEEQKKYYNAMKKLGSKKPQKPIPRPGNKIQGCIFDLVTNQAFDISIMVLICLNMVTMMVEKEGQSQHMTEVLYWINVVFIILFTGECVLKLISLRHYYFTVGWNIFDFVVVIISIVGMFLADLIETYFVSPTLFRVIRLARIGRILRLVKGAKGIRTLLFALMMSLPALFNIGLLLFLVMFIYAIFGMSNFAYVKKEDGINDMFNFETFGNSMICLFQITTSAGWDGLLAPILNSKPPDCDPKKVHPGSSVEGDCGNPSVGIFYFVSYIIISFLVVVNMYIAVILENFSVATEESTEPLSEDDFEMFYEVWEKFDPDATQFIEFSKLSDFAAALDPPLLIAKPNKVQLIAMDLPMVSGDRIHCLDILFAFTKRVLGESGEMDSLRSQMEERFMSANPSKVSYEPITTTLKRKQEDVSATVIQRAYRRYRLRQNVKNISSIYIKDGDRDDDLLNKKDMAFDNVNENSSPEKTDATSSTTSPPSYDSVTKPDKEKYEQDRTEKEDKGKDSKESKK
PROTOCOL SUMMARY: E-VIPR optical membrane potential assay with electrical stimulation
CONDITION DETAILS: active against one or more sodium channels; assay/subtype not specified in Table 4; read-out: IC50 Binned Activity Data
From the text: E-VIPR Optical Membrane Potential Assay Method with Electrical Stimulation Sodium channels are voltage-dependent proteins that can be activated by inducing membrane voltage changes by applying electric fields. The electrical stimulation instrument and methods of use are described in Ion Channel Assay Methods PCT/US01/21652, herein incorporated by reference and are referred to as E-VIPR. […] 7) Read Plate on E-VIPR. […]
pIC50: −log10 of the molar value.
MEASURED METRIC: pIC50

COMPOUND: O=C(c1ccc(OCCOC(F)(F)F)c(F)c1)N1CC[C@]2(c3nccs3)OCOC2C1 (stereo partly shown)
ASSAYED SYSTEM: NaV 1.7 (Homo sapiens, UniProt Q15858)
pIC50: 5.30 to 5.70

COMPOUND: COc1nc(C(=O)N2CC[C@]3(c4cccc(F)c4)OCOC3C2)ccc1OCC1CC2C(C1)C2(F)F (stereo partly shown) [Compound 236]
ASSAYED SYSTEM: NaV 1.7 (Homo sapiens, UniProt Q15858)
pIC50: ≥ 5.70

Request: pIC50 lookup needed for COc1nc(C(=O)N2CC[C@]3(c4cc(C(F)(F)F)ccn4)OCOC3C2)ccc1OCCOC(F)(F)F (stereo partly shown) , thanks.
Result: ≥ 5.70

Request: Recorded pIC50 of Cc1nc(C(=O)N2CC[C@]3(c4ccccn4)OCOC3C2)ccc1OCCOC(F)(F)F (stereo partly shown) , please.
Result: ≥ 5.70
